# experiment.summary: Pharmacokinetics in osteoarthritis patients, plasma concentrations by LC/MS
# Format: in vivo, human
# condition.notes: both sexes, human, plasma, po, 50 mg, 50 mg bid oral, day 0; read-out: tmax
measured.endpoint: Tmax (h)
Please give a number only; it is taken to be in h.

# Tmax (molecule: Cc1ccc(Nc2c(F)cccc2Cl)c(CC(=O)O)c1 ) is 2

====

# experiment.summary: Pharmacokinetics in osteoarthritis patients, plasma concentrations by LC/MS
# Type: in vivo, human
# condition.notes: both sexes, human, plasma, po, 100 mg, 100 mg bid oral, day 28; read-out: AUC0-6
measured.endpoint: AUC(0-t) (ng·h/mL)
Please give a number only; it is taken to be in ng·h/mL.

# AUC(0-t) (molecule: Cc1ccc(Nc2c(F)cccc2Cl)c(CC(=O)O)c1 ) is 6010

====

# experiment.summary: Pharmacokinetics in osteoarthritis patients, plasma concentrations by LC/MS
# Assay type: in vivo, human
# condition.notes: both sexes, human, plasma; 200 mg bid oral, day 28
measured.endpoint: AUC (ng·h/mL)
Please give a number only; it is taken to be in ng·h/mL.

# AUC (compound: Cc1ccc(Nc2c(F)cccc2Cl)c(CC(=O)O)c1 ) is 14000

====

# experiment.summary: Pharmacokinetics in osteoarthritis patients, plasma concentrations by LC/MS
# Type: in vivo, human
# condition.notes: both sexes, human, plasma, po, 100 mg, 100 mg bid oral, day 0; read-out: AUC0-6
measured.endpoint: AUC(0-t)

# AUC(0-t) (molecule: Cc1ccc(Nc2c(F)cccc2Cl)c(CC(=O)O)c1 ) is 5220 ng·h/mL

====

# experiment.summary: Pharmacokinetics in osteoarthritis patients, plasma concentrations by LC/MS
# Type: in vivo, human
# condition.notes: both sexes, human, plasma, po, 200 mg, 200 mg bid oral, day 28; read-out: tmax
# Procedure: A four week multicenter randomized double-blind double-dummy placebo-controlled parallel group trial (the study) of four dosing regimens of 5-methyl-2-(2′-chloro-6′-fluoroanilino)phenylacetic acid in patients with knee or hip primary osteoarthritis is performed, using diclofenac as a comparator. […]
measured.endpoint: Tmax (h)
Please give a number only; it is taken to be in h.

# Tmax (compound: Cc1ccc(Nc2c(F)cccc2Cl)c(CC(=O)O)c1 ) is 2

====

# experiment.summary: Pharmacokinetics in osteoarthritis patients, plasma concentrations by LC/MS
# Assay type: in vivo, human
# condition.notes: both sexes, human, plasma, po, 400 mg, 400 mg qd oral, day 28
measured.endpoint: Cmax (µg/mL)
Please give a number only; it is taken to be in µg/mL.

# Cmax (compound: Cc1ccc(Nc2c(F)cccc2Cl)c(CC(=O)O)c1 ) is 4.79

====

# experiment.summary: Pharmacokinetics in osteoarthritis patients, plasma concentrations by LC/MS
# Type: in vivo, human
# condition.notes: both sexes, human, plasma, po, 200 mg, 200 mg bid oral, day 28
measured.endpoint: Cmax (ng/mL)
Please give a number only; it is taken to be in ng/mL.

# Cmax (compound: Cc1ccc(Nc2c(F)cccc2Cl)c(CC(=O)O)c1 ) is 4380

====

# experiment.summary: Pharmacokinetics in osteoarthritis patients, plasma concentrations by LC/MS
# Format: in vivo, human
# condition.notes: both sexes, human, plasma, po, 100 mg, 100 mg bid oral, day 0; read-out: tmax
measured.endpoint: Tmax (h)
Please give a number only; it is taken to be in h.

# Tmax (compound: Cc1ccc(Nc2c(F)cccc2Cl)c(CC(=O)O)c1 ) is 2.5

====

# experiment.summary: Pharmacokinetics in osteoarthritis patients, plasma concentrations by LC/MS
# Type: in vivo, human
# condition.notes: both sexes, human, plasma, po, 100 mg, 100 mg bid oral, day 28
measured.endpoint: Cmax
# do not omit the unit; it follows the number

# Cmax (compound: Cc1ccc(Nc2c(F)cccc2Cl)c(CC(=O)O)c1 ) is 1860 ng/mL

====

# experiment.summary: Pharmacokinetics in osteoarthritis patients, plasma concentrations by LC/MS
# Assay type: in vivo, human
# condition.notes: both sexes, human, plasma, oral, all dose groups; read-out: tmax, typical
measured.endpoint: Tmax

# Tmax (molecule: Cc1ccc(Nc2c(F)cccc2Cl)c(CC(=O)O)c1 ) is 2 to 3 h

====

# experiment.summary: Pharmacokinetics in osteoarthritis patients, plasma concentrations by LC/MS
# Assay type: in vivo, human
# condition.notes: both sexes, human, plasma, po, 200 mg, 200 mg bid oral, day 0; read-out: tmax
measured.endpoint: Tmax (h)
Please give a number only; it is taken to be in h.

# Tmax (compound: Cc1ccc(Nc2c(F)cccc2Cl)c(CC(=O)O)c1 ) is 3

====

# experiment.summary: Pharmacokinetics in osteoarthritis patients, plasma concentrations by LC/MS
# Assay type: in vivo, human
# condition.notes: both sexes, human, plasma, po, 50 mg, 50 mg bid oral, day 28; read-out: tmax
measured.endpoint: Tmax (h)
Please give a number only; it is taken to be in h.

# Tmax (compound: Cc1ccc(Nc2c(F)cccc2Cl)c(CC(=O)O)c1 ) is 2

====

# experiment.summary: Pharmacokinetics in osteoarthritis patients, plasma concentrations by LC/MS
# Assay type: in vivo, human
# condition.notes: both sexes, human, plasma; 400 mg qd oral, day 28
measured.endpoint: AUC (ng·h/mL)
Please give a number only; it is taken to be in ng·h/mL.

# AUC (compound: Cc1ccc(Nc2c(F)cccc2Cl)c(CC(=O)O)c1 ) is 25800

====

# experiment.summary: Pharmacokinetics in osteoarthritis patients, plasma concentrations by LC/MS
# Type: in vivo, human
# condition.notes: both sexes, human, plasma, po, 400 mg, 400 mg qd oral, day 0
measured.endpoint: Cmax (ng/mL)
Please give a number only; it is taken to be in ng/mL.

# Cmax (molecule: Cc1ccc(Nc2c(F)cccc2Cl)c(CC(=O)O)c1 ) is 5540

Each recorded value in this set is attributed to patent US20040186179A1.
